Molecular target: human SGLT2 (Homo sapiens, UniProt P31639)
Sequence (P31639 1-672): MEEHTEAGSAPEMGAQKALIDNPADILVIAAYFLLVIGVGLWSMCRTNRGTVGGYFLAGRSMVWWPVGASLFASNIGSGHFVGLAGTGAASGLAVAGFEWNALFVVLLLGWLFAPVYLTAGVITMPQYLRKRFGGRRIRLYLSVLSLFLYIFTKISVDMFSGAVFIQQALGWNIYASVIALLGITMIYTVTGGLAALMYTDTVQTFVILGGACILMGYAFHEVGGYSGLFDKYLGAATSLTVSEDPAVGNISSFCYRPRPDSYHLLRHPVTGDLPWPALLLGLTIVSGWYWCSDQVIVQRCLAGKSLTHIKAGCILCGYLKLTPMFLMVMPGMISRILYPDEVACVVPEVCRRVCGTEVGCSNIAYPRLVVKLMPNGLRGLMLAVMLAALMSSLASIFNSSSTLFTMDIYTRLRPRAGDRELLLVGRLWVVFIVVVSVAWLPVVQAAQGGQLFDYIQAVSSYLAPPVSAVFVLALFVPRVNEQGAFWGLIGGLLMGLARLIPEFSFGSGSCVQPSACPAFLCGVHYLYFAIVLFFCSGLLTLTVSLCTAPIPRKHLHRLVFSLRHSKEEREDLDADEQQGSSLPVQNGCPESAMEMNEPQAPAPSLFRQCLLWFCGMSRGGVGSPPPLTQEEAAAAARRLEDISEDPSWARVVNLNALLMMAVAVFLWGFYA
Assay: Inhibitory activity against methyl-α-D-glucopyranoside uptake of human SGLT2
Conditions: SGLT2 inhibition; methyl-α-D-(U-14C)glucopyranoside uptake in CHO-K1 cells stably expressing human SGLT2, 45 minutes at 37° C.
Recorded measurements of pIC50, one per entry
Lab note: report pIC50 as minus log10 of the concentration in molar units, number only.

# smiles_record, pIC50
data = [
    ("CC(C)c1ccc(Cc2ccc3c(c2)[C@]2(OC3)O[C@H](CO)[C@@H](O)[C@H](O)[C@H]2O)cc1", 8.30),
    ("CCc1ccc(Cc2ccc3c(c2)[C@]2(OC3)O[C@H](CO)[C@@H](O)[C@H](O)[C@H]2O)cc1", 8.38),
]

Now consider the entry below.
Incoming: Look at this compound and give its reported pIC50. OC[C@H]1O[C@]2(OCc3ccc(Cc4cc5ccccc5s4)cc32)[C@H](O)[C@@H](O)[C@@H]1O
Outgoing: 8.40
